assay.summary: AUC (infinity) in Balb/c mouse plasma at 100 mg/kg, po by LC-MS/MS analysis
Type: ADME, organism-based
Parameters: time infinity, dose 100 mg/kg, route oral
value.type: AUC(0-inf) (ng·h/mL)
The reply should be a number in ng·h/mL, with the unit left off.

Per the record, C[C@H]1Cc2ccccc2N1C(=O)Cc1nc(N2CCOCC2)cc(=O)[nH]1 has AUC(0-inf) of 11000

###

Catalogue of compounds with associated Papp at 20 min, 5 µM
assay.summary: Apparent permeability in human Caco2 cells at 5 uM after 20 mins
study.conditions: Caco-2
The reply should be a number in ×10⁻⁶ cm/s, with the unit left off.

Would you please look over these solved cases?
>>> df
                                   compound  result_number
0  O=C(Cc1nc(N2CCOCC2)cc(=O)[nH]1)N1CCc2ccccc21            5.9
1  C[C@H]1Cc2ccccc2N1C(=O)Cc1nc(N2CCOCC2)cc(=O)[nH]1            4.8
2  O=C(Cc1nc(N2CCOCC2)cc(=O)[nH]1)N1CCc2c(-c3ccccc3)cccc21            7.1
3  O=C(Cc1nc(N2CCOCC2)cc(=O)[nH]1)N1CCc2c(-c3ccccn3)cccc21            4.2

Per the record, CC1CN(C(=O)Cc2nc(N3CCOCC3)cc(=O)[nH]2)c2ccccc21 (racemic) has Papp at 20 min, 5 µM of 7.5

###

assay.summary: Lipophilicity, log D of the compound
Assay type: physicochemical
study.conditions: octanol/water
Catalogue of molecules with associated logD
Field format: numeric only.

                              sample_smiles  value_type  result_number
0  O=C(Cc1nc(N2CCOCC2)cc(=O)[nH]1)N1CCc2c(-c3ccncc3)cccc21        logD           1.99

Per the record, O=C(Cc1nc(N2CCOCC2)cc(=O)[nH]1)N1CCc2c(-c3cccnc3)cccc21 has logD of 1.99

###

assay.summary: Half life in nude rat at 10 mg/kg, po
Type: ADME, organism-based
Parameters: dose 10 mg/kg, route oral
study.conditions: in vivo
value.type: half-life (h)
The reply should be a number in h, with the unit left off.

Per the record, C[C@H]1Cc2ccccc2N1C(=O)Cc1nc(N2CCOCC2)cc(=O)[nH]1 has half-life of 6.9

###

assay.summary: Fraction unbound in SCID mouse plasma xenografted with PTEN-deficient human PC3 cells at 100 mg/kg, po
Format: ADME, organism-based, PC-3
Design: dose 100 mg/kg, route oral
value.type: fraction unbound
Field format: numeric only.

Per the record, C[C@H]1Cc2ccccc2N1C(=O)Cc1nc(N2CCOCC2)cc(=O)[nH]1 has fraction unbound of 0.4

###

assay.summary: Cmax in nude rat at 10 mg/kg, po
Type: ADME, organism-based
Design: dose 10 mg/kg, route oral
study.conditions: in vivo
value.type: Cmax (ng/mL)
The reply should be a number in ng/mL, with the unit left off.

Per the record, C[C@H]1Cc2ccccc2N1C(=O)Cc1nc(N2CCOCC2)cc(=O)[nH]1 has Cmax of 1460

###

Catalogue of compounds with associated IC50
measurement.target: Phosphatidylinositol 4,5-bisphosphate 3-kinase catalytic subunit beta isoform (Homo sapiens, UniProt P42338)
Sequence (P42338 whole entry, canonical isoform): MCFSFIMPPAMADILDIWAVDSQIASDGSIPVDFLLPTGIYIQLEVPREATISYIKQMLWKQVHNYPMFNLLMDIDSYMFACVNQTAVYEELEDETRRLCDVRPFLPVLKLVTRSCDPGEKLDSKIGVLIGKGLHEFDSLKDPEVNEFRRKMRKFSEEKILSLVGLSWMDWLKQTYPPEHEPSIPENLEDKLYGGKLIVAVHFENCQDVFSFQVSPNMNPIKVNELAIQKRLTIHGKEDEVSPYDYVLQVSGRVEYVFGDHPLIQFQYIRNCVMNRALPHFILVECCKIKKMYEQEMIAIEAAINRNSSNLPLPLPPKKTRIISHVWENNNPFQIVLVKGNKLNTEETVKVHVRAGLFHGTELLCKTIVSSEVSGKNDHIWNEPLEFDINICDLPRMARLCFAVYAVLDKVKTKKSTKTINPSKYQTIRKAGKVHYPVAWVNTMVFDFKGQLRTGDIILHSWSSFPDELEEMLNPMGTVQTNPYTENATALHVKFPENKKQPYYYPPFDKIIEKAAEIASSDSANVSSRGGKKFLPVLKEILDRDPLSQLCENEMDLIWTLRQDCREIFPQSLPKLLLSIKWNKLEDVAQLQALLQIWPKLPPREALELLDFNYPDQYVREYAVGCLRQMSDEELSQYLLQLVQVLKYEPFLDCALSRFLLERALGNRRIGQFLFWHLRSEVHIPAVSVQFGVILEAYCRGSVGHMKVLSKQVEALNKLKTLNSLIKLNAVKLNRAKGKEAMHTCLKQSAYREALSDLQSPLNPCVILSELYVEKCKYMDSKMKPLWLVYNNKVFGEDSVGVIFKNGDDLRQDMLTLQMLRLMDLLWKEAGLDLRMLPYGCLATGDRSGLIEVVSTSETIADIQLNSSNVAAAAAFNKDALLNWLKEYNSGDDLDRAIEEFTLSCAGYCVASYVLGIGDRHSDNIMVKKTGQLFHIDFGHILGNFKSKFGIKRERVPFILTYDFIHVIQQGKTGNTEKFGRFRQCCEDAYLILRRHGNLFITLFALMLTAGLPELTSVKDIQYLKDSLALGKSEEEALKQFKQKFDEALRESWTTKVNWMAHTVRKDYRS
assay.summary: Inhibition of PI3Kbeta-mediated Akt phosphorylation at S473 in PTEN-deficient human PC3 cells after 0.5 to 2 hrs by Immunoblotting assay
Type: cell-based, PC-3
The reply should be a number in nM, with the unit left off.

Would you please look over these solved cases?
>>> df
                                   compound  result_number
0  CN1CCN(c2cccc3c2CCN3C(=O)Cc2nc(N3CCOCC3)cc(=O)[nH]2)CC1            167
1  O=C(Cc1nc(N2CCOCC2)cc(=O)[nH]1)N1CCc2c(OC(F)(F)F)cccc21             54
2  Cc1cccc2c1CCN2C(=O)Cc1nc(N2CCOCC2)cc(=O)[nH]1              3
3  O=C(Cc1nc(N2CCOCC2)cc(=O)[nH]1)N1CCc2c(-c3ccccn3)cccc21             66
4  O=C(Cc1nc(N2CCOCC2)cc(=O)[nH]1)N1CCc2c(-c3cccnc3)cccc21             53

Per the record, O=C(Cc1nc(N2CCOCC2)cc(=O)[nH]1)N1CCc2c(Cl)cccc21 has IC50 of 3

Per the record, CC1(C)Cc2ccccc2N1C(=O)Cc1nc(N2CCOCC2)cc(=O)[nH]1 has IC50 of 78

Per the record, O=C(Cc1nc(N2CCOCC2)cc(=O)[nH]1)N1CCc2ccccc21 has IC50 of 15

Per the record, Cn1c(CC(=O)N2CCc3ccccc32)nc(N2CCOCC2)cc1=O has IC50 of 20

Per the record, CC1Cc2ccccc2N1C(=O)Cc1nc(N2CCOCC2)cc(=O)[nH]1 (racemic) has IC50 of 6

Per the record, C[C@@H]1Cc2ccccc2N1C(=O)Cc1nc(N2CCOCC2)cc(=O)[nH]1 has IC50 of 12

Per the record, O=C(Cc1nc(N2CCOCC2)cc(=O)[nH]1)N1CCc2cc(Cl)ccc21 has IC50 of 124

Per the record, CC1(C)CN(C(=O)Cc2nc(N3CCOCC3)cc(=O)[nH]2)c2ccccc21 has IC50 of 28
